# Tested on: BDF1 mice, colon carcinoma 38 sc, T/C %
# Test Summary: NCI In Vivo Anticancer Drug Screen. Data for tumor model Colon Carcinoma 38 (subcutaneous) in B6D2F1 (BDF1) mice
# Condition Context: endpoint: median tumor weight (est.); dose: 200.0 mg/kg/injection; schedule: Q07DX002 (ip); vehicle: Klucel (hydroxypropylcellulose) (HPC); higher = larger tumour
Inconclusive results are not listed.
Listed here: items and their measured T/C.

Molecule	Test Result
CNC(=O)OCc1c(COC(=O)NC)c(C)n(-c2ccc(OC)cc2)c1C	49 % of control
O=C(Cc1cccc2c(=O)cc(-c3ccccc3)oc12)OCCN1CCOCC1	92 % of control
O=Cc1ccccc1	60 % of control
CCN(CC)CCOC(=O)Cc1cc(OC)cc2c(=O)cc(-c3ccccc3)oc12	104 % of control
COCC1OC2OC3C(COC)OC(OC4C(COC)OC(OC5C(COC)OC(OC6C(COC)OC(OC7C(COC)OC(OC8C(COC)OC(OC1C(O)C2O)C(O)C8O)C(O)C7O)C(O)C6O)C(O)C5O)C(O)C4O)C(O)C3O (stereo unspecified) (tested in a mixture with another compound)	69 % of control

Kindly consider the entry below.
// query T/C value for entry ClCCCCCCCCCCc1ccccc1 80 % of control

Where these numbers come from: PubChem BioAssay AID212
